System tested: Muscarinic acetylcholine receptor M1 (Homo sapiens)
Sequence (P11229 whole entry): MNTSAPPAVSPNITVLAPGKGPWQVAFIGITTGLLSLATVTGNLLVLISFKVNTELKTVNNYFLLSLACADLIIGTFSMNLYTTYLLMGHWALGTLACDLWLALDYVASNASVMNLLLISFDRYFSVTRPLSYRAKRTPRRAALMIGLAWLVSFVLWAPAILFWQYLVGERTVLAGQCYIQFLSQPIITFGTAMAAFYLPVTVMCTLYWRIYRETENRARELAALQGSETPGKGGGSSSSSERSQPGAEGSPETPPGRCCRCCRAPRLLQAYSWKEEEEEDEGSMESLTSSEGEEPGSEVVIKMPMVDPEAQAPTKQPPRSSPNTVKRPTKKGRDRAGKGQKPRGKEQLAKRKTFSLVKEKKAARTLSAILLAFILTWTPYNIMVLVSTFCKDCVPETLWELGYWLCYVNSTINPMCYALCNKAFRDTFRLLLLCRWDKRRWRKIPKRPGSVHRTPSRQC
Run description: Compound was evaluated for displacement of [3H]QNB from human Muscarinic m1 receptor in CHO cells.
Property measured: pKi
On this scale, pKi is minus log10 of a concentration expressed in M (mol/L).

The examples below pair each entry with its known result.
CCN(CC)CC1CCCCN1CC(=O)N1c2ccccc2C(=O)Nc2cccnc21 (stereo not drawn) | 6.75
CCCN(CCC)CC1CCCCN1CCNC(=O)N1c2ccccc2C(=O)Nc2cccnc21 (stereo not drawn) | 7.91

Field: next compound
**Q:** Give pKi for this entry on Muscarinic acetylcholine receptor M1 (Homo sapiens): CC1CCN(CC(=O)N2c3ccccc3C(=O)Nc3cccnc32)CC1
**A:** 7.08
